Data provenance: patent US10570121B2

target: WT EZH2 (Homo sapiens (Human), UniProt Q15910); test: WT EZH2 nucleosome assay (10X SAM, high SAM conditions); format: biochemical; settings: WT EZH2 Nucleosome assay (10X SAM) Ki (μM), 15 uM SAM, Ki app from competitive inhibition fit
Sequence (Q15910 whole entry, looked up): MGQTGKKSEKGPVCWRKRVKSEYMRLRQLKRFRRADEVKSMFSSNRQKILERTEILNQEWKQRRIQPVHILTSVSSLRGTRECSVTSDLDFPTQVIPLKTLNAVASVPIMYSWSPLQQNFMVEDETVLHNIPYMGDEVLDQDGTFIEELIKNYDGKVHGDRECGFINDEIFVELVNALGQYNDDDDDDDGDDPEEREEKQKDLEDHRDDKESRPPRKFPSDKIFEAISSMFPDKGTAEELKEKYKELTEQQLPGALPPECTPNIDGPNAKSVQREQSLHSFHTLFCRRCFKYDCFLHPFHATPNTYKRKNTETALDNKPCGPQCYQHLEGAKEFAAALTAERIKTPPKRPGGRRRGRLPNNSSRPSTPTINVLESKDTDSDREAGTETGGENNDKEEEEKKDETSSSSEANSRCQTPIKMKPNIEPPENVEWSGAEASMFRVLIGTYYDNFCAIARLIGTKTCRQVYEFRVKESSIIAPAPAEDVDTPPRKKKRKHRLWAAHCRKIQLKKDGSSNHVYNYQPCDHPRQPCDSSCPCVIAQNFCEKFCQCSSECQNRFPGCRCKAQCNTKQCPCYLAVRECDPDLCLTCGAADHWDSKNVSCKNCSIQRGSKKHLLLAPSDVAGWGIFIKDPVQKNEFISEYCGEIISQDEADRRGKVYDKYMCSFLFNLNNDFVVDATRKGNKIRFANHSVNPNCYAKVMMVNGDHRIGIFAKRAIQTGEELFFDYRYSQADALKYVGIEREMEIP
Sequence (O75530 whole entry partner, looked up): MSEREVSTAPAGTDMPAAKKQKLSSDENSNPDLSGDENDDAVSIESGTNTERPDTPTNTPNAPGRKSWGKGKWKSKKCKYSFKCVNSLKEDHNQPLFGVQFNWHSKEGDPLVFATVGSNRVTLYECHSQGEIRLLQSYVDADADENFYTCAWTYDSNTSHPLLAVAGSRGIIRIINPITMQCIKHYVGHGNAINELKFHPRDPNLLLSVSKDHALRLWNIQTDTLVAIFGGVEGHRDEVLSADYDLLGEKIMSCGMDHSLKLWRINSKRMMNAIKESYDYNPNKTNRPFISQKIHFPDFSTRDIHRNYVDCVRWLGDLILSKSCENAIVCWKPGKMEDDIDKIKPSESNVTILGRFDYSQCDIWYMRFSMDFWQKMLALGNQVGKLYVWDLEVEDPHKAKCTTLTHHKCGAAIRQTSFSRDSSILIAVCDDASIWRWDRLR
Sequence (Q15022 whole entry partner, looked up): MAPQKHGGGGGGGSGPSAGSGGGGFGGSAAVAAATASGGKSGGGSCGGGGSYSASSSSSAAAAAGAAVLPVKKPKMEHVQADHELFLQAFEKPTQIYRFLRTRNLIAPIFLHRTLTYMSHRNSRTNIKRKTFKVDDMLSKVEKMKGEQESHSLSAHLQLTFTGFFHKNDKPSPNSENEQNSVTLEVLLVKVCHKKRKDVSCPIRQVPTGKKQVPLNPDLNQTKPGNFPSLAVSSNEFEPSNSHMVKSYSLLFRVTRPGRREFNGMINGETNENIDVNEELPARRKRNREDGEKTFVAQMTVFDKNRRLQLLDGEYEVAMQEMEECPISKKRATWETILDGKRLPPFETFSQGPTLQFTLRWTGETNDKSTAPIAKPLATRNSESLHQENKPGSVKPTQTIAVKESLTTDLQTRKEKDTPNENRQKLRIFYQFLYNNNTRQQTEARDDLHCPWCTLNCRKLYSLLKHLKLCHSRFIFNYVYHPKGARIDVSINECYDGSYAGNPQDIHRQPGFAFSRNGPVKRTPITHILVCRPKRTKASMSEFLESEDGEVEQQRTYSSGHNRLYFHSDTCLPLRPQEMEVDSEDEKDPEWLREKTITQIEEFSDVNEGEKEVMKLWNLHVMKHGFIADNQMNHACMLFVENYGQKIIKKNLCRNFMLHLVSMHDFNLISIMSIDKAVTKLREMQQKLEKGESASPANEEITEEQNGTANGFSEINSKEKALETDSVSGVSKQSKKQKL
Sequence (Q09028 whole entry partner, looked up): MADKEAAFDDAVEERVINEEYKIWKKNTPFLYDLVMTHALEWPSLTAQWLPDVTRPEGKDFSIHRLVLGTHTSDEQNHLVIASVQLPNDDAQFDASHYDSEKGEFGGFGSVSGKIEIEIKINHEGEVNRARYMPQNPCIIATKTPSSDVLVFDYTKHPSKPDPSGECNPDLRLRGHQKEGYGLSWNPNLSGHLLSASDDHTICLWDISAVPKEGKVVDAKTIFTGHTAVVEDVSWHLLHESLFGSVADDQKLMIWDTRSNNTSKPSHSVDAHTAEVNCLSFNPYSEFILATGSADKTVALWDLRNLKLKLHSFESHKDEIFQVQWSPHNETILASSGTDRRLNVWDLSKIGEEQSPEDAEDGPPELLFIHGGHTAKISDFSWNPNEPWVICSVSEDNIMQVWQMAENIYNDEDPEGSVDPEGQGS
PARAMETER MEASURED: Ki (µM)

a. COC(c1cc(Cl)c2c(c1Cl)C(=O)N(Cc1c(C)cc(C)[nH]c1=O)CC2)C1CCOC1 (single isomer, unassigned) [Example 160]
b. COC(c1cc(Cl)c2c(c1Cl)C(=O)N(Cc1c(C)cc(C)[nH]c1=O)CC2)C1CCOC1 (single isomer, unassigned) [Example 162]
Between a and b , whose measured Ki reads higher? Give the chosen item's label as your response.
b
